Experiment: Inhibition of bacterial Metallo-beta-lactamase VIM-4 (unknown origin)
Set-up: species or system Bacteria
assay.metric: pIC50
// returns pIC50 (minus log10 of molar concentration), number only

Would you mind telling me what pIC50 value was observed for O=C(O)c1ccccc1CCn1c(-c2cccc(-c3ccccc3)c2)n[nH]c1=S ?
5.68

---

Molecular target: Beta-lactamase NDM-1 (Escherichia coli, UniProt E5KIY2)
Sequence (E5KIY2 whole entry): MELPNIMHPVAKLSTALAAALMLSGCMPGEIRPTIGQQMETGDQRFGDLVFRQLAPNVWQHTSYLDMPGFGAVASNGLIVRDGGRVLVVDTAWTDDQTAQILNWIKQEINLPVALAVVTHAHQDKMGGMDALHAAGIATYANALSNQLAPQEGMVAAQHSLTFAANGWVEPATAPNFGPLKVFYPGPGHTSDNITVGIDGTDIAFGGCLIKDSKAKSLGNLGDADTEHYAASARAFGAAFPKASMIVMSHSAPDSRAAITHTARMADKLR
Test: Inhibition of NDM-1 in Escherichia coli assessed as reduction in imipenem hydrolytic activity
assay.metric: pIC50
// returns pIC50 (minus log10 of molar concentration), number only

Would you mind telling me what pIC50 value was observed for CCOC(=O)[C@]1(CS)N[C@@H](C(=O)O)C(C)(C)S1 ?
5.00

---

Experiment: Acute toxicity in ip dosed CD1 mouse assessed as lethal dose measured for 7 days
Format: organism-based
Conditions: in vivo, time 7 day
assay.metric: LD50 at 168 h

Would you mind telling me what LD50 at 168 h value was observed for Cc1oc(C)c(S(N)(=O)=O)c1C(=O)O ?
> 1000 mg/kg

---

Target: Metallo-beta-lactamase type 2 (Bacteria)
Assay: Inhibition of bacterial NDM-1 (unknown origin) using imipenem as substrate by Agilent UV8453 Spectrometric analysis
assay.metric: IC50 (nM)
Respond with the bare value in nM.

Would you mind telling me what IC50 value was observed for S=C(N/N=C/c1ccccn1)Nc1ccc(Cl)cc1 ?
38

---

Assay: Cytotoxicity against human HeLa cells
Format: toxicity, cell-based
assay.metric: IC50

Would you mind telling me what IC50 value was observed for CN1CCN(C(=S)N/N=C/c2ccccc2O)CC1 ?
> 64 µg/mL

---

Test: Inhibition of Acinetobacter baumannii Metallo-beta-lactamase IMP-1
assay.metric: pIC50
// returns pIC50 (minus log10 of molar concentration), number only

Would you mind telling me what pIC50 value was observed for Oc1ccccc1/C=N/c1cccnc1/N=C/c1ccccc1O ?
4.03

Consider the record given below.
Would you mind telling me what pIC50 value was observed for Oc1ccc(Br)cc1/C=N/c1cccnc1/N=C/c1cc(Br)ccc1O ?
4.08

---

Assay: Binding affinity to bacterial Metallo-beta-lactamase IMP-1 (unknown origin) assessed as inhibition constant
Design: species or system Bacteria
assay.metric: pKi
// returns pKi (minus log10 of molar concentration), number only

Would you mind telling me what pKi value was observed for CCOC(=O)[C@]1(CS)N[C@@H](C(=O)O)C(C)(C)S1 ?
5.70

---

Test: Cytotoxicity against human HeLa cells incubated for 24 hrs by PrestoBlue reagent based assay
Type: toxicity, cell-based
assay.metric: IC50 at 24 h

Would you mind telling me what IC50 at 24 h value was observed for COP(=O)(CCSC(C)=O)N(C)Cc1ccccn1 (racemic) ?
> 500 µM

---

Target: Metallo-beta-lactamase type 2 (Bacteria, UniProt C7C422)
Sequence (C7C422 whole entry): as the sequence (E5KIY2 whole entry) above
Experiment: Binding affinity to wildtype bacterial NDM-1 (unknown origin) expressed in Escherichia coli BL21(DE3) cells assessed as dissociation constant
assay.metric: pKd
// returns pKd (minus log10 of molar concentration), number only

Would you mind telling me what pKd value was observed for CC1=C[C@@]2(C)[C@@H](/C(C)=C/[C@]3(C)O[C@H](C)[C@@]4(C)O[C@H]43)[C@](C)([C@@H](O)[C@@H](C)C(=O)C(C)C)[C@H]2[C@]2(C)O[C@H]12 ?
4.93

---

Biological target: Beta-lactamase VIM-1 (Bacteria, UniProt Q8GDC1)
Test: Inhibition of bacterial Metallo-beta-lactamase VIM-1 (unknown origin)
assay.metric: IC50 (nM)
Respond with the bare value in nM.

Provide value of IC50 for this record tested with Beta-lactamase VIM-1 (Bacteria, UniProt Q8GDC1): O=C(O)c1ccccc1CCn1c(-c2cccc(-c3ccccc3)c2)n[nH]c1=S
1610
